Values compiled from patent US5932707A.

- Test system: human erythrocyte ghosts
- Test Protocol: Red cell ghost (RCG) uptake
- Assay type: in vitro ADME
- Condition: technetium complex; human erythrocyte ghosts
Result Type: RCG uptake (%/mg protein)

Worked examples, 2 compounds total:
* CC(=O)NCCNC(=O)CCSCCSC1CCCCO1 (stereo not shown) [HL49] | 3.6
* CC(=NO)C(C)(C)NCCCNC(C)(C)C(C)=NO [PnAO, reference compound] | 6.7

(A) CC(=O)NCCNC(=O)CSCCSC1CCCCO1 (stereo not shown) [HL15P]
(B) CC(=O)NCCCNC(=O)CSCCSC1CCCCO1 (stereo not shown) [HL60P]
Please state the entry with greater RCG uptake among A and B . # respond with the chosen item's label
A
